- experimental target: UniProtKB P29274
- Sequence (P29274 whole entry): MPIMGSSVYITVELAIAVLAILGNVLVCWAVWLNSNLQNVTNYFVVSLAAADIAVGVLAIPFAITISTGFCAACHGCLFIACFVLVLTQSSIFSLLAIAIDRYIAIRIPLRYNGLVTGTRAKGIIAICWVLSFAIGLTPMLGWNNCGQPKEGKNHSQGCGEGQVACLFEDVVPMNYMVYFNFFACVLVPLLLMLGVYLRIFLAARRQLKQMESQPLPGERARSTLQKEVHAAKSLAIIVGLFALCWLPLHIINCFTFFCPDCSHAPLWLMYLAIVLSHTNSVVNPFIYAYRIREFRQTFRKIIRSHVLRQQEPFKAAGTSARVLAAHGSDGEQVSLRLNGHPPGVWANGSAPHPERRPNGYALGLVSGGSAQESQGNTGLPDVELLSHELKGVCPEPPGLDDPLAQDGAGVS
- assay notes: Radioligand membrane binding assay at hA2A AR ([3H]CGS21680)
- experimental setup: Table 3; read-out: A2A Ki
Give Ki for every item shown.
All answers are understood in nM, so give the number only.

Briefly, Ki measured for Cn1cc2c(nc(NC(=O)Nc3ccc(CC(=O)NCCCNC(=O)OC(C)(C)C)cc3)n3nc(-c4ccco4)nc23)n1 [Compound 12] : 150

The value of Ki measured for the compound Cn1cc2c(nc(NC(=O)Nc3ccc(CC(=O)NCCCNC(=S)Nc4ccc5c(c4)C(=O)OC54c5ccc(O)cc5Oc5cc(O)ccc54)cc3)n3nc(-c4ccco4)nc23)n1 [Compound 22] turned out to be 110

The compound listed as Cn1cc2c(nc(NC(=O)Nc3ccc(CC(=O)NCCCCCN)cc3)n3nc(-c4ccco4)nc23)n1.O=C(O)C(F)(F)F [Compound 19, trifluoroacetate salt] has a reported Ki of 203

Record Cn1cc2c(nc(NC(=O)Nc3ccc(CC(=O)NCCOCCOCCNC(=S)Nc4ccc5c(c4)C(=O)OC54c5ccc(O)cc5Oc5cc(O)ccc54)cc3)n3nc(-c4ccco4)nc23)n1 [Compound 25] . Reported Ki: 95.7

Noted for Cn1cc2c(nc(NC(=O)Nc3ccc(CC(=O)NCCCCNC(=O)OC(C)(C)C)cc3)n3nc(-c4ccco4)nc23)n1 [Compound 13] : its Ki reads 304

Memo: Cn1cc2c(nc(NC(=O)Nc3ccc(CC(=O)NCCCCNC(=S)Nc4ccc5c(c4)C(=O)OC54c5ccc(O)cc5Oc5cc(O)ccc54)cc3)n3nc(-c4ccco4)nc23)n1 [Compound 23] , reported Ki: 60.4

These entries and their values trace back to patent US9227979B2.
